pKi: −log10 of the molar value.
// read-out pKi, gathered for UniProtKB P27338 from published studies
outcome-measure: pKi

molecule_smiles=CCN1C(=O)Cc2cc(N3C[C@H](CNC(=O)OC)OC3=O)ccc21 value_observed=4.24

A. O=C1O[C@@H](CNC(=S)c2ccco2)CN1c1ccc(N2CCOCC2)c(F)c1
B. COC(=O)NC[C@H]1CN(c2cc(F)c3c(c2)CC(=O)N3C(C)C)C(=O)O1
Query: Could you check which of A and B has a smaller value for pKi? Write down the label of the entry you select.
Response: A
